Catalogue of molecules with associated melting point

Worked cases, melting point given:
{"molecule": "CC(C)n1nc(-c2sc(C(=O)NC3CC3)nc2-c2cccc(F)c2)ccc1=O", "melting point": "146 to 147 °C"}
{"molecule": "O=C1Nc2cccc(I)c2C(=O)N2CCC[C@@H]12", "melting point": "212 to 215 °C"}

-- ask Which value of melting point has been reported for O=C(Oc1ccccc1)N1CCC2(CC1)SC(c1ccccc1F)c1ccccc12 (stereo unspecified) in the records?
-- reply 122 to 123 °C

-- ask Which melting point is reported for this molecule? "CCOC(=O)c1cnn(-c2ccc(OC)c(C#N)c2)c1"
-- reply 192 to 193 °C

-- ask I have this molecule here, "Nc1ccc(O)c2c1C(=O)c1c(N)ccc(O)c1C2=O" , and I need its recorded melting point.
-- reply 290 °C

-- ask Give its melting point value. Item: Cc1c(NCCCCNCC(O)COc2ccccc2)n(C)c(=O)n(C)c1=O (stereo unspecified)
-- reply 148 to 150 °C

-- ask Value lookup for melting point; key = "CCOP(=O)(Cc1ccccc1NC(=O)C1=Cc2cc(C3CCCCC3)ccc2CC1)OCC"
-- reply 102 to 103 °C

-- ask Sample "Cc1nc2c(OCc3ccccc3Cl)nccc2n1C" — what was its melting point?
-- reply 180 to 181 °C

-- ask Bench note: what melting point did "COc1ccc(-n2cnc(-c3cccc(C(=O)O)c3)n2)cc1" show?
-- reply 230 to 232 °C

-- ask Value lookup for melting point; key = "CNC(=C[N+](=O)[O-])NCCSCc1ccsn1"
-- reply 118 to 120 °C

-- ask May I ask what melting point has been recorded for "CC(C)CSc1c(-c2ccc(S(C)(=O)=O)cc2)cnn(CC(F)(F)F)c1=O" ?
-- reply 135 to 138 °C

-- ask Look up melting point: "Cc1cc2ncc(-c3cccc(C(F)(F)F)c3)c(N)n2n1"
-- reply 176 °C

-- ask Data request, read-out melting point, for CC(C)c1nn(-c2nc3ccccc3s2)c(-c2ccc(F)cc2)c1C=CC1CC(O)CC(=O)O1 (stereo unspecified)
-- reply 168 to 170 °C

-- ask Would you kindly share the measured melting point for "CCOc1nn(-c2c(Cl)cc(C(F)(F)F)cc2Cl)c(N)c1C(=O)c1cc(C)ccc1C" ?
-- reply 99 to 101 °C

-- ask GET /values?readout=melting point&item= "CN(C)c1ccc(C(=CC(c2ccc(N(C)C)cc2)c2ccc(N(C)C)cc2)c2ccc(N(C)C)cc2)cc1"
-- reply 189 to 190 °C

-- ask Item under review: "CCOC(=O)NC=C(C(=O)OCC)c1ccc(Cl)cc1" . Reported melting point?
-- reply 72 °C

-- ask I would be grateful if you could share the reported melting point for "C=CCc1cc(C(=O)OC(C)C)ccc1O" .
-- reply 79 to 80 °C

-- ask Could you share which melting point value was measured for "Cc1nc2c(Cl)cc(F)c(-n3c(=O)cc(C(F)(F)F)n(C)c3=O)c2s1" ?
-- reply 83 to 85 °C

-- ask Entry COC(=O)C(Br)Cc1ccc(OC)c(C(=O)NCc2ccc(C(F)(F)F)cc2)c1 (stereo unspecified) : reported melting point = ?
-- reply 110 to 111 °C

---

measured.endpoint: melting point

{"compound": "O=C(Nc1n[nH]c(=S)s1)NC(Cc1ccccc1)C(=O)NCc1ccc2c(c1)OCO2 (configuration not stated)", "measured.endpoint": "melting point", "result": "213 °C"}

-- ask // returns reported melting point for input CC1C(=O)N(CC(N)=O)c2cc(Br)ccc21 (configuration not stated)
-- reply 102 to 104 °C

-- ask Query (compound): C=CCN1C(=O)C2CCc3c(OC)c(OC)cc(C)c3C2C1=O (configuration not stated) ; field requested: melting point
-- reply 90 to 91 °C

-- ask Quick check: melting point of "COC(=O)c1ccc(-c2ccc(-c3ccc4c(c3)C(C)(C)CCC4(C)C)n2C)cc1" ?
-- reply 104 to 105 °C

-- ask Look up melting point: "O=C(O)c1cc2c(C(F)(F)F)cccc2s1"
-- reply 178 to 179 °C

-- ask Record request: melting point value, item "CC(=O)N1CCC(CCC(=O)c2ccc(F)cc2)CC1"
-- reply 95 to 96 °C

-- ask # get_value(readout='melting point', item= "CCCCCNS(=O)(=O)NC(=O)OCc1ccccc1" )
-- reply 142 to 143 °C

-- ask Please give the measured melting point for this compound: "Cc1ccc(Cn2nc(C(=O)O)c(C)c2-c2ccc(Cl)cc2)cc1Cl"
-- reply 162 °C

-- ask Could you tell me which melting point is on file for "CCOC(=O)c1[nH]cc(C)c1-c1ccccc1" ?
-- reply 62 to 64 °C

-- ask melting point lookup needed for "CCCC(=O)c1c(O)oc(=O)c(C(=O)CCC)c1O" , thanks.
-- reply 80 to 82 °C

-- ask Form field: reported melting point of COc1ccc(C)cc1NC(=O)Nc1ccc2c(c1)CCN(C(=O)Nc1ccc(OCC(O)CO)cc1Cl)C2 (configuration not stated)
-- reply 119 to 121 °C

-- ask Could you tell me which melting point is on file for "CCOC(=O)c1ccc(NC(=O)c2ccncc2)cc1" ?
-- reply 143 to 145 °C

Reference source: a melting point compilation (Tetko et al.; mined from patent text by program, amines drawn as free bases though some values may be those of a salt)
